src = patent US20260193326A1

Target: T1, AAV8 (adeno-associated virus 8)
T1 construct: also called adeno-associated virus serotype 8
Assay: SPR, AAV amine-coupled to CM5 chip;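 note: nanobodies flowed as analyte at seven concentrations spanning 1–100 nM over immobilized AAV (500–800 RU), kinetic constants derived by fitting the binding curves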
// values below are reported kon
Numeric only. Scale: M⁻¹ s⁻¹

{"columns": ["binder", "obs.value"],
 "data": [
  ["A4-081 (VHH) VHH: VQLQESGGGLVQPGGSLRLSCAASGSRFSLNTMGWYRQAPGKQRELVATVTRGGSTNYADSVKGRFTISRDNAKNTVYLQMNSLRPEDTAVYYCHVDELRESGWTTSNLWGQGTQVTVSS", 174000],
  ["A4-076 (VHH) VHH: VQLQESGGGLVHSGGSLRLSCAASGSMFSLNTMGWYRQAPGKQRELVATITRGGGTSYADSVKGRFTISRDNAKNTVYLQMNSLRPEDTAVYYCHVDELRQSSWTTSNLWGQGTQVTVSS", 9380],
  ["A4-085 (VHH) VHH: VQLQESGGGLVQPGGSLRLSCAASGSRFSLNTMGWYRQAPGKQREFVAAVTRGGNTNYGDFVKGRFTISRDNAKNTVYLQMNSLRPEDTAVYYCHVDELRESSWTTSNLWGQGTQVTVSS", 3790]
]}

# ---- query binder ----
Given the binder A4-099 (VHH) VHH: VQLQESGGGLVQTGGSLRLSCAASGSSFSINTMGWYRQAPGKWRELVAAVTRGGDTNYAESVKGRFTISRDNGKNTVYLQMNSLRPEDTAVYYCHIDEIRESSWTTSNLWGQGTQVTVSS , write its reported kon.
194000
